# System Tested: T1, human neuropeptide Y2 receptor (human, UniProt P49146 1-381)
# T1 sequence (looked up): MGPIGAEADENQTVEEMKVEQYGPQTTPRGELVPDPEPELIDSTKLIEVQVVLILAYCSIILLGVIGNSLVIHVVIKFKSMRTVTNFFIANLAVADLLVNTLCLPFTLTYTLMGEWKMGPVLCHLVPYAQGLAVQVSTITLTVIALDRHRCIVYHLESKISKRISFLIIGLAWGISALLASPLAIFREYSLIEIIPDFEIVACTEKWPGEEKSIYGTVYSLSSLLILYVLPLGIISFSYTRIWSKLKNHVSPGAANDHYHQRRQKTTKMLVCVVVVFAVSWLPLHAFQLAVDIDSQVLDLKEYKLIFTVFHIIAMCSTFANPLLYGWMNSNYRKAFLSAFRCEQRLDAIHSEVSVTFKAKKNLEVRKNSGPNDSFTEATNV
# Procedure Summary: cell-based or functional assay
Starred links: 1 amine or outer side, 2 acyl side, 3 side chain; linkers in the order of their positions; H or OH if unused. Non-standard residues stand in square brackets, D forms with d. Groups on a side chain read outwards from the residue. No end group written: not given here. *: point of attachment. C18 diacid = O=C(O)CCCCCCCCCCCCCCCCC(=O)*; γGlu = O=C(O)[C@H](CCC(=O)[*:2])N[*:1]; εLys = N[C@@H](CCCCN[*:1])C(=O)[*:2]; AEEA = NCCOCCOCC(=O)O; Aib = CC(C)(N)C(=O)O
Overview of recorded EC50 CreLuc hNPY2R 0.5% hP for various binders
Measurement Label: EC50 CreLuc hNPY2R 0.5% hP (nM)

[[record]]
binder = "Y[Aib]EGTFTSDYSI[Aib]LEKQAQ[Aib]AFVEWLLKGGPSSGASLRHYYNWLTRQRY-NH2 (not fully specified (residue 28)) [Compound 109]"
measured = 10.8

[[record]]
binder = "Y[Aib]EGTFTSDYSI[Aib]LEKQAQ[Aib]EFVQWLIK([εLys-γGlu-γGlu-γGlu-γGlu-γGlu-C18 diacid])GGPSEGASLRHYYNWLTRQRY-NH2 [Compound 154]"
measured = 10.7

[[record]]
binder = "Y[Aib]EGTFTSDYSI[Aib]LEKQAQ[Aib]EFVEWLIK([AEEA-AEEA-γGlu-γGlu-γGlu-γGlu-C18 diacid])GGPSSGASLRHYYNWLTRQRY-NH2 [Compound 145]"
measured = 11.9

[[record]]
binder = "YXEGTFTSDYSIXLEKQAQXAFVEWLIKGGPSSGASLRHYYNWXTRQRY (Aib at 2, 13, 20; Tle at 44; K28 side chain: C20DA-gGlu-gGlu-gGlu-gGlu-gGlu-gGlu-eLys; C-terminal NH2) [Compound 137]"
measured = 60.2

[[record]]
binder = "YXEGTFTSDYSIXLEKQAQXAFVEYLIKGGPSSGASLRHYYNWLTRQRY (Aib at 2, 13, 20; K28 side chain: C20DA-gGlu-gGlu-gGlu-gGlu-gGlu-gGlu-eLys; C-terminal NH2) [Compound 135]"
measured = 8.4

[[record]]
binder = "Y[Aib]EGTFTSDYSI[Aib]LEKQAE[Aib]AFVQWLIK([εLys-γGlu-γGlu-γGlu-γGlu-γGlu-C18 diacid])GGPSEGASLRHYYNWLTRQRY-NH2 [Compound 138]"
measured = 18.3

